# METHOD DESCRIPTION: Terminal half life in DIO NFR-transgenic mouse plasma at 30 mg/kg, po once daily for 14 days
# Type: ADME, organism-based
# TEST PARAMETERS: time 14 day, read-out: beta t1/2 (converted)
PARAMETER: half-life at […] (h)
Write the value in h as a bare number.

q: Reported half-life at […] for `Cc1cc(C)c2c(c1)[C@@H](N(Cc1cc(C(F)(F)F)cc(C(F)(F)F)c1)c1nnn(C)n1)CCCN2C[C@H]1CC[C@H](C(=O)O)CC1` : what is it?
a: 7.1

---

# METHOD DESCRIPTION: Half life in DIO wild type mouse plasma at 10 mg/kg, po qd treated for 40 days
# Format: ADME, organism-based
# TEST PARAMETERS: time 40 day
PARAMETER: half-life (h)
Write the value in h as a bare number.

q: Reported half-life for `COc1ncc(-c2ccc(C(=O)O)cc2C)cc1-c1ccc(C(F)(F)F)cc1[C@@H]1CC[C@H]2[C@@H](c3cc(C(F)(F)F)cc(C(F)(F)F)c3)OC(=O)N12` : what is it?
a: 67.2

---

# METHOD DESCRIPTION: Terminal half life in DIO NFR-transgenic mouse adipose tissue at 30 mg/kg, po once daily for 14 days
# Assay type: ADME, organism-based
# TEST PARAMETERS: time 14 day, read-out: beta t1/2 (converted)
PARAMETER: half-life at […]
Entry format: amount then unit.

q: Reported half-life at […] for Cc1cc(C)c2c(c1)[C@@H](N(Cc1cc(C(F)(F)F)cc(C(F)(F)F)c1)c1nnn(C)n1)CCCN2C[C@H]1CC[C@H](C(=O)O)CC1 [EVACETRAPIB] : what is it?
a: 1.3 h

---

# METHOD DESCRIPTION: Lipophilicity, logD of the compound at pH 7.3 by HPLC analysis
# Type: physicochemical
# TEST PARAMETERS: buffer
Please go through the items and note down their logD.
Simply state the number, no unit and no words.

q: Reported logD for `COc1ccc(-c2ccc(C(=O)O)cc2C)cc1-c1cnc(N(C)C)nc1CN1C(=O)O[C@H](c2cc(C(F)(F)F)cc(C(F)(F)F)c2)[C@@H]1C` : what is it?
a: 4.8

q: Likewise for `COc1ncc(-c2ccc(C(=O)O)cc2C)cc1-c1ccc(C(F)(F)F)nc1CN1C(=O)O[C@H](c2cc(C(F)(F)F)cc(C(F)(F)F)c2)[C@@H]1C` ?
a: 5.1

q: Likewise for `COc1cc(F)c(-c2ccc(C(=O)O)cc2C)cc1-c1ccc(F)cc1[C@@H]1CC[C@H]2[C@@H](c3cc(C(F)(F)F)cc(C(F)(F)F)c3)OC(=O)N12` ?
a: 5.1

q: Likewise for `COc1cc(F)c(-c2ccc(-c3nnc(N)o3)cc2C)cc1-c1ccc(C(F)(F)F)cc1[C@@H]1CC[C@H]2[C@@H](c3cc(C)cc(C(F)(F)F)c3)OC(=O)N12` ?
a: 6.6

q: Likewise for `COc1ccc(-c2ccc(C(=O)O)cc2C)cc1-c1ncc(C(F)(F)F)cc1[C@@H]1CC[C@H]2[C@@H](c3cc(C(F)(F)F)cc(C(F)(F)F)c3)OC(=O)N12` ?
a: 4.6

q: Likewise for `COc1ccc(-c2ccc(C(=O)O)cc2C)cc1-c1ccc(C(F)(F)F)nc1CN1C(=O)O[C@H](c2cc(C(F)(F)F)cc(C(F)(F)F)c2)[C@@H]1C` ?
a: 5.3

q: Likewise for `COc1ccc(-c2ccc(C(=O)O)cc2C)cc1-c1c(C)cc(C(F)(F)F)cc1[C@@H]1CC[C@H]2[C@@H](c3cc(C(F)(F)F)cc(C(F)(F)F)c3)OC(=O)N12` ?
a: 6

q: Likewise for `COc1ccc(-c2ccc(C(=O)O)cc2C)cc1-c1ccc(N(C)C)nc1[C@@H]1CC[C@H]2[C@@H](c3cc(C(F)(F)F)cc(C(F)(F)F)c3)OC(=O)N12` ?
a: 5.8

q: Likewise for `COc1ncc(-c2ccc(C(=O)O)cc2C)cc1-c1cnc(C(F)(F)F)cc1[C@@H]1CC[C@H]2[C@@H](c3cc(C(F)(F)F)cc(C(F)(F)F)c3)OC(=O)N12` ?
a: 4.6

q: Likewise for `COc1ccc(-c2ccc(C(=O)O)cc2C)cc1-c1cnc(C(F)(F)F)cc1[C@@H]1CC[C@H]2[C@@H](c3cc(C(F)(F)F)cc(C(F)(F)F)c3)OC(=O)N12` ?
a: 4.8

q: Likewise for `COc1cc(F)c(-c2ccc(C(=O)O)cc2C)cc1-c1cc(C)c(C(F)(F)F)cc1[C@@H]1CC[C@H]2[C@@H](c3cc(C(F)(F)F)cc(C(F)(F)F)c3)OC(=O)N12` ?
a: 6

q: Likewise for `COc1ccc(-c2ccc(C(=O)O)cc2C)cc1-c1cc(C(C)C)c(N(C)C)nc1[C@@H]1CC[C@H]2[C@@H](c3cc(C(F)(F)F)cc(C(F)(F)F)c3)OC(=O)N12` ?
a: 6.6

---

# METHOD DESCRIPTION: Oral bioavailability in fasted dog at 1 mg/kg in Imwitor/Tween
# Assay type: ADME, organism-based, Canis lupus familiaris
# TEST PARAMETERS: in vivo
PARAMETER: bioavailability
Entry format: amount then unit.

q: Reported bioavailability for `COc1ncc(-c2ccc(C(=O)O)cc2C)cc1-c1ccc(C(F)(F)F)cc1[C@@H]1CC[C@H]2[C@@H](c3cc(C(F)(F)F)cc(C(F)(F)F)c3)OC(=O)N12` : what is it?
a: 53%

---

# METHOD DESCRIPTION: Lipophilicity, logD of the compound at pH 7.3 by HPLC analysis
# Assay type: physicochemical
# TEST PARAMETERS: buffer
PARAMETER: logD
Simply state the number, no unit and no words.

q: Reported logD for `COc1cc(F)c(C(C)C)cc1-c1ccc(C(F)(F)F)cc1[C@@H]1CC[C@H]2[C@@H](c3cc(F)cc(C(F)(F)F)c3)OC(=O)N12` : what is it?
a: 6.3

q: Likewise for COc1ccc(C2CNC(=O)OC2(C)C)cc1-c1ccc(C(F)(F)F)cc1[C@@H]1CC[C@H]2[C@@H](c3cc(C(F)(F)F)cc(C(F)(F)F)c3)OC(=O)N12 (some centres not stated) ?
a: 5.7

q: Likewise for `COc1ccc(-c2ccc(C(=O)O)cc2C)cc1-c1cnc(N(C)C)nc1CN1C(=O)O[C@H](c2cc(F)cc(F)c2)[C@@H]1C` ?
a: 3.8

q: Likewise for COc1ccc(C(C)CC(=O)O)cc1-c1ccc(C(F)(F)F)cc1[C@@H]1CC[C@H]2[C@@H](c3cc(C(F)(F)F)cc(C(F)(F)F)c3)OC(=O)N12 (some centres not stated) ?
a: 5

q: Likewise for `COc1ccc(-c2c(C)cc(C(=O)O)cc2C)cc1-c1ccc(C(F)(F)F)cc1[C@@H]1CC[C@H]2[C@@H](c3cc(C(F)(F)F)cc(C(F)(F)F)c3)OC(=O)N12` ?
a: 5.4

q: Likewise for `COc1cc(F)c(C(C)C)cc1-c1ccc(F)cc1[C@@H]1CC[C@H]2[C@@H](c3cc(C(F)(F)F)cc(C(F)(F)F)c3)OC(=O)N12` ?
a: 7

q: Likewise for `COc1ccc(-c2ccc(C(=O)O)cc2C)cc1-c1cnc(N(C)C)cc1[C@@H]1CC[C@H]2[C@@H](c3cc(C(F)(F)F)cc(C(F)(F)F)c3)OC(=O)N12` ?
a: 4.6

q: Likewise for `COc1cc(F)c(C(C)C)cc1-c1ccc(C(F)(F)F)cc1[C@@H]1CC[C@H]2[C@@H](c3cc(Cl)cc(C(F)(F)F)c3)OC(=O)N12` ?
a: 6.5

q: Likewise for `COc1ccc(-c2ccc(C(=O)O)cc2C)cc1-c1cnc(N(C)C)nc1CN1C(=O)O[C@H](c2cc(Cl)cc(Cl)c2)[C@@H]1C` ?
a: 4.6

q: Likewise for `Cc1cc(C(=O)O)ccc1-c1ccc(Cl)c(-c2ccc(C(F)(F)F)cc2CN2C(=O)O[C@H](c3cc(C(F)(F)F)cc(C(F)(F)F)c3)[C@@H]2C)c1` ?
a: 6.2

---

# METHOD DESCRIPTION: Terminal half life in DIO NFR-transgenic mouse adipose tissue at 10 mg/kg, po once daily for 14 days
# Assay type: ADME, organism-based
# TEST PARAMETERS: time 14 day, read-out: beta t1/2 (converted)
PARAMETER: half-life at […] (h)
Write the value in h as a bare number.

q: Reported half-life at […] for `COc1ncc(-c2ccc(C(=O)O)cc2C)cc1-c1ccc(C(F)(F)F)cc1[C@@H]1CC[C@H]2[C@@H](c3cc(C(F)(F)F)cc(C(F)(F)F)c3)OC(=O)N12` : what is it?
a: 2.8

---

Please go through the items and note down their MRT.
# METHOD DESCRIPTION: MRT in CD1 mouse at 1 mg/kg, iv and 2 mg/kg, po
# Format: ADME, organism-based
# TEST PARAMETERS: in vivo
Entry format: amount then unit.

q: Reported MRT for `COc1ncc(-c2ccc(C(=O)O)cc2C)cc1-c1ccc(C(F)(F)F)cc1[C@@H]1CC[C@H]2[C@@H](c3cc(C(F)(F)F)cc(C(F)(F)F)c3)OC(=O)N12` : what is it?
a: 6 h

q: Likewise for `COc1ccc(-c2ccc(C(=O)O)cc2C)cc1-c1cnc(N(C)C)nc1[C@@H]1CC[C@H]2[C@@H](c3cc(C(F)(F)F)cc(C(F)(F)F)c3)OC(=O)N12` ?
a: 2.8 h

q: Likewise for `COc1cc(F)c(-c2ccc(C(=O)O)cc2C)cc1-c1ccc(C(F)(F)F)cc1[C@@H]1CC[C@H]2[C@@H](c3cc(C(F)(F)F)cc(C(F)(F)F)c3)OC(=O)N12` ?
a: 5.8 h
